- System: MOLT-4 leukemia
- Measurement Description: NCI tumour cell line growth inhibition, 48 h
Consider the following compounds and their measured GI50 readings.

O=S(=O)(NC1=NCCN1C(=S)SN1CCn2c1nsc2=S)c1ccccc1Cl
2.02 µM

Query: # get_value(readout= GI50, system= MOLT-4 leukemia) for CCN(CC)CCOC(=O)Cc1cccc2c(=O)cc(-c3ccccc3)oc12
Reply: 3.37 µM

Query: # get_value(readout= GI50, system= MOLT-4 leukemia) for O=C(COc1cccc(/C=C2\Oc3ccc4ccccc4c3C2=O)c1)c1ccc(Cl)cc1
Reply: 3.13 µM

Query: # get_value(readout= GI50, system= MOLT-4 leukemia) for Fc1ccc2c(c1)C1=C(CO2)C(c2ccc(Cl)cc2)NC(=S)N1 (stereo not given)
Reply: 39.5 µM

Query: # get_value(readout= GI50, system= MOLT-4 leukemia) for COc1cccc(C2SC(C)C(=O)N2CCc2cccs2)c1 (stereo not given)
Reply: 2.34 µM

====

- System: SK-MEL-2 melanoma
- Measurement Description: NCI tumour cell line growth inhibition, 48 h; in the data active = GI50 below about 0.43 µM; inactive = the rest
The categories you may choose from are active, inactive

Worked examples, 5 compounds total:
NCCCN1CCN(CCCNc2nc3ccccc3c3[nH]c4ccccc4c23)CC1
inactive
O=C(CCSc1ccnc2c(C(F)(F)F)cccc12)N/N=C/c1cc(Cl)c(Cl)cc1Cl
inactive
FC(F)(F)c1cccc2c(SCCc3n[nH]c(=S)o3)ccnc12
inactive
C=C(CNC(=O)c1ccccc1)c1ccc(C(=O)Nc2ccccc2N)cc1
inactive
COc1ccc2c(c1)c(-c1ccc(-c3cn(C)c4ccc(OC)cc34)[nH]1)cn2C
inactive

Query: Which outcome did this test record for the compound Cc1ccc2nc(-c3ccc(N)c4ccccc34)[nH]c2c1 ?
Reply: active

Query: Which outcome did this test record for the compound CC(C)C[C@H](NC(=O)[C@@H](NC(=O)c1cccc(-c2ccccc2)n1)[C@@H](C)O)B(O)O ?
Reply: active

Query: Which outcome did this test record for the compound CC1=CCC[C@H]2[C@](C)(CC3=CC(=O)C(Sc4ccccc4)=CC3=O)[C@@H](C)CC[C@]12C ?
Reply: inactive

Query: Which outcome did this test record for the compound COc1ccc(-c2ccc(-c3ccc(C(=N)N)cn3)o2)cc1Cl ?
Reply: inactive

====

Consider the following molecules and their measured TGI readings.
- Test system: MALME-3M melanoma
- Measurement Description: NCI tumour cell line growth inhibition, 48 h

Cc1ncc(CCl)c(CCl)c1O
> 100 µM
CCNNC(=O)[C@@H]1[C@H](c2cc(OC)c(OC)c(OC)c2)c2cc3c(cc2[C@H](O)[C@H]1CO)OCO3
> 100 µM
COc1cc(C2CC(=O)Nc3c2ccc2ccccc32)cc(Br)c1OC (stereo not given)
> 70.6 µM
CCCN(CCC)C1CCc2c(ccc3cc[nH]c23)C1 (stereo not given)
> 100 µM
NS(=O)(=O)c1ccc(-n2ncc3c(Nc4ccccc4)ncnc32)cc1
> 100 µM

Proceeding to the next molecule to report its TGI.
Query: # get_value(readout= TGI, system= MALME-3M melanoma) for Cc1ccc(S(=O)(=O)N/N=C2/CCC(C(C)(C)C)CC2Br)cc1 (stereo not given)
Reply: 31.2 µM

====

- Tested on: MCF7 breast
- Measurement Description: NCI tumour cell line growth inhibition, 48 h
Consider the following molecules and their measured TGI readings.

These solved cases illustrate the format of a correct answer.
O=C(CNc1ccc2c(=S)c3ccccc3[nH]c2c1)Nc1ccccc1-c1ccccc1NC(=O)CNc1ccc2c(=S)c3ccccc3[nH]c2c1
> 52.7 µM
CCOC(=O)C(C(=O)OCC)C(=O)c1ccccc1C(=O)c1ccccc1
> 100 µM
COc1ccccc1C1(C)SCc2nc3ccccc3n21 (configuration not stated)
> 10 µM
COc1cc(OC2OC(COC(=O)c3cc(O)c(O)c(O)c3)C(O)C(O)C2O)ccc1O (configuration not stated)
> 100 µM
O=S(=O)(NC1=NCCN1C(=S)SN1CCn2c1nsc2=S)c1ccccc1Cl
> 100 µM

Query: I have this molecule here, C=C(CNC(=O)c1ccccc1)c1ccc(C(=O)Nc2ccccc2N)cc1 , and I need its recorded TGI.
Reply: > 100 µM

Query: I have this molecule here, COC(=O)[C@]12CC[C@@H](C)[C@H](C)[C@@H]1C1=CC[C@@H]3[C@@]4(C)C(C=O)=C[C@@](C)(COS(C)(=O)=O)C4[C@H](O)C[C@@]3(C)[C@]1(C)CC2 (some centres not stated) , and I need its recorded TGI.
Reply: 3.63 µM

====

- System: HL-60(TB) leukemia
- Measurement Description: NCI tumour cell line growth inhibition, 48 h
Property: TGI

These solved cases illustrate the format of a correct answer.
C=C1CCCC2[C@](C)(CC3=C(O)C(=O)C=C(OC)C3=O)[C@@H](C)CC[C@]12C (stereo partly drawn)
9.59 µM
Cc1ccc2c(C(=O)c3c(C)n(CCN4CCOCC4)c4ccccc34)cccc2c1
10.4 µM
COc1cc(/C=C\c2ccc(Br)cc2)cc(OC)c1OC
0.0032 µM
NC(=O)c1ccccc1NC(=O)c1ccccc1Cl
> 100 µM
COc1ccc2[nH]c(C(=O)N3CC(CCl)c4c3cc(N)c3ccccc43)cc2c1 (stereo not drawn)
< 0.01 µM

Query: I have this compound here, CCCCCN(CCCCC)CC(C)(C)C(O)c1ccc(OC)c2ccccc12 (stereo not drawn) , and I need its recorded TGI.
Reply: 20.7 µM

Query: I have this compound here, COc1nc2c(nc(N)n2C2OCC(O)C(O)C2O)c(=O)n1C (stereo not drawn) , and I need its recorded TGI.
Reply: > 100 µM

Query: I have this compound here, CC(=O)/C=C1\CC(=O)Nc2ccccc2N1 , and I need its recorded TGI.
Reply: > 100 µM

Query: I have this compound here, NC(=Nc1ccccc1)c1ccccc1N , and I need its recorded TGI.
Reply: > 100 µM

Query: I have this compound here, Nc1nccc2c1ncn2C1OC(CO)C(O)C1O (stereo not drawn) , and I need its recorded TGI.
Reply: > 100 µM

Query: I have this compound here, CC1(C(=O)O)CCOc2ccccc21 (stereo not drawn) , and I need its recorded TGI.
Reply: > 100 µM

Query: I have this compound here, CCOC(=O)C(NC(=O)CC)(Nc1ccc(F)c(Cl)c1)C(F)(F)F (stereo not drawn) , and I need its recorded TGI.
Reply: > 100 µM

Query: I have this compound here, COc1cccc(CCC(=O)c2cc3c(N)c(C(=O)Nc4cccc(Cl)c4C)sc3nc2C)c1 , and I need its recorded TGI.
Reply: > 100 µM

====

- System: HCT-116 colon
- Measurement Description: NCI tumour cell line growth inhibition, 48 h; in the data active means GI50 below about 0.43 µM; inactive means the rest
The categories you may choose from are t = active, f = inactive

Worked examples, 3 compounds total:
FC(F)(F)c1cccc2c(SCCc3n[nH]c(=S)o3)ccnc12
f
Cc1ccc2nc(-c3ccc(N)c4ccccc34)[nH]c2c1
t
COc1ccc(-c2cc(-c3cccc(NS(C)(=O)=O)c3)nc(N)c2C#N)cc1
t

Query: Which outcome did this test record for the compound COc1cc(F)c(/C=C/c2cc(/C=C/c3cc(OC)c(OC)cc3F)n(-c3cc(F)cc(F)c3)n2)cc1OC ?
Reply: f

Query: Which outcome did this test record for the compound Cc1ncc(C(=O)Nc2ccc(CN3CCN(C)CC3)c(C(F)(F)F)c2)cc1C#Cc1c(N)ncc2ccccc12 ?
Reply: t

====

- Tested on: HL-60(TB) leukemia
- Measurement Description: NCI tumour cell line growth inhibition, 48 h
Property: TGI (µM)
Respond with the bare value in µM.

These solved cases illustrate the format of a correct answer.
CC12CCC(C(=Nc3cc(C(F)(F)F)cc(C(F)(F)F)c3)C1=O)C2(C)C (centres undefined)
23.8
O=[N+]([O-])c1cccc(Cl)c1Oc1ccc(S(=O)(=O)/N=C(\NO)Nc2ccc(Cl)cc2)cc1
16.5
CNC1=C(C(=O)OC)SC(c2ccccc2)(c2ccccc2)SC1
58.2
C=C1C(OC/C=C/COC2O[C@@H]3O[C@@]4(C)CC[C@H]5[C@H](C)CC[C@@H](C2=C)[C@@]35OO4)O[C@@H]2O[C@@]3(C)CC[C@H]4[C@H](C)CC[C@@H]1[C@@]24OO3 (some centres undefined)
47.1

Proceeding to the next compound to report its TGI.
Query: I have this compound here, Clc1cc(-c2ccccc2)nc2ccccc12 , and I need its recorded TGI.
Reply: 53.3

====

- Tested on: HCT-15 colon
- Measurement Description: NCI tumour cell line growth inhibition, 48 h; in the data active = GI50 below about 0.43 µM; inactive = the rest
The categories you may choose from are YES for active, NO for inactive

COc1ccc(-c2cc(-c3cccc(NS(C)(=O)=O)c3)nc(N)c2C#N)cc1
YES
COc1c(Cl)ccc2c(-c3nc4cc(Cl)c(F)cc4s3)cc(=O)oc12
NO
FC(F)(F)c1cccc2c(SCCc3n[nH]c(=S)o3)ccnc12
NO
COc1cc(F)c(/C=C/c2cc(/C=C/c3cc(OC)c(OC)cc3F)n(-c3cc(F)cc(F)c3)n2)cc1OC
NO
CC(C)C[C@H](NC(=O)[C@H](Cc1cccc2ccccc12)NS(=O)(=O)c1cccc2cccnc12)B(O)O
YES
N#Cc1nc2c(S(=O)(=O)c3ccccc3)c(N)n(Cc3ccc(Cl)cc3)c2nc1C#N
NO
Nc1ccc(C(OC(=O)c2cc3ccccc3c(Cc3c(O)c(C(=O)OC(c4ccc(N)cc4)(c4ccc(N)cc4)c4ccc(N)cc4)cc4ccccc34)c2O)(c2ccc(N)cc2)c2ccc(N)cc2)cc1
NO
COC(=O)[C@]12CC[C@@H](C)[C@H](C)[C@@H]1C1=CC[C@@H]3[C@@]4(C)C(C=O)=C[C@@](C)(COS(C)(=O)=O)C4[C@H](O)C[C@@]3(C)[C@]1(C)CC2 (stereo not given in full)
NO

Query: Which outcome did this test record for the compound Cc1cc(C)c(S(=O)(=O)N(CCc2cccc(Br)c2)Cc2ccc(-c3cccc(S(C)(=O)=O)c3)cc2)c(C)c1 ?
Reply: NO

Query: Which outcome did this test record for the compound Nc1c(C(=O)N/N=C/c2ccc(-c3cc(Cl)c(Cl)cc3Cl)o2)cnn1-c1ccnc2c(C(F)(F)F)cccc12 ?
Reply: NO

The reported numbers originate from PubChem BioAssay (NCI).
